# assayed-system: RAD51 (Homo sapiens, UniProt Q06609 21-339)
# Sequence (Q06609 21-339): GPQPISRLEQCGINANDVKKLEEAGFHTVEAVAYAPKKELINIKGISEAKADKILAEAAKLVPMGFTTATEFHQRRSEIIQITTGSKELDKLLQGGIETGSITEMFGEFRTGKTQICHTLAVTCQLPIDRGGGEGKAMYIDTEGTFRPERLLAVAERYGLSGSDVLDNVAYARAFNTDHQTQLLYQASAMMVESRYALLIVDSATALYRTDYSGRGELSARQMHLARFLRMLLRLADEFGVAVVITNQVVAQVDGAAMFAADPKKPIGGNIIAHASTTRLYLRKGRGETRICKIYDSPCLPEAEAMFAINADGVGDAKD
# procedure-details: BLI; no Fab-F2; 1:1 Langmuir global fit; BLI on streptavidin biosensors; 0.5 uM RAD51 for the inhibition assay; buffer, salt, pH and temperature not given in the material (RAD51 dialyzed into PBS)
# measurement-context: protein: recombinant; label: 5'-biotin; single strand
measurement-type: Kd

> print(dat)
                                     binder  endpoint.result
1  TTTTTTTTTTTTTTTTTTTTTTTTTTTTTTTTTTTT (ssDNA) [oligo(dT)36]          27.6 nM
